Biological target: aldehyde reductase (ALR1) (Homo sapiens, UniProt P14550)
Sequence (P14550 1-325): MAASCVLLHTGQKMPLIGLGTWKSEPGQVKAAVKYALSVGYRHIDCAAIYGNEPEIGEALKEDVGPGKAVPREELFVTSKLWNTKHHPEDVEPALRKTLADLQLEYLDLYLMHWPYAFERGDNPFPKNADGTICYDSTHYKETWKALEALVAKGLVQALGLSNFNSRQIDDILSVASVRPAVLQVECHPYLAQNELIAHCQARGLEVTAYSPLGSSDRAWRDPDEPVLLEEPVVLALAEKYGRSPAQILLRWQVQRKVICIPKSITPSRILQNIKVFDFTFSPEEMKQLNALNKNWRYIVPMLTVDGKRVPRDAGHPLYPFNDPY
Readout Kind: IC50 (µM)
Value expressed in µM; do not type the unit.

Data request: I have this molecule here, O=C1N=C(Nc2ccccc2)S/C1=C\c1ccccc1OCc1cn(Cc2cccc(Cl)c2)nn1 , and I need its recorded IC50.
Data returned: 90

---

Endpoint: IC50. System: aldose reductase (ALR2) (Homo sapiens, UniProt P15121). Items follow.
Numbers only here, please. The scale is µM.

O=C1N=C(Nc2ccccc2)S/C1=C\c1ccccc1OCc1cn(Cc2ccc(Cl)cc2)nn1 [Compound 9c] :: 10

For the next question, use this compound.
Data request: Checklist item: IC50 tested on aldose reductase (ALR2) (Homo sapiens, UniProt P15121), entry O=C1N=C(Nc2ccccc2)S/C1=C\c1ccccc1OCc1cn(Cc2cccc(Cl)c2)nn1 [Compound 9b] , value?
Data returned: 28
